# Test system: Daudi Cell Culture
# Assay Details: Compound primary screening in Daudi cell culture
# Assay type: cell-based
# Assay Setup: Homo sapiens, 168 h; Daudi cells, 1250 cells per well, reads on Day 7
Test Readout: EC50

Field: example entries. Status: answers known.
# Compound, EC50
measured = [
    ("CCNS(=O)(=O)c1cc(NC(C)=O)ccc1-c1cnc(-c2ccc(NC(=S)NC(C)C)cc2)s1", "> 10 µM"),
    ("CC(=O)Nc1ccc(-c2cnc(-c3ccc(NC(=S)NC(C)C)cc3)s2)c(S(=O)(=O)N(C)C)c1", "< 1 µM"),
    ("CC(C)OC(=O)Nc1ccc(-c2ncc(-c3ccc(NS(=O)(=O)Cc4ccccc4)cc3S(=O)(=O)NC(C)(C)C)s2)cc1 [Compound E2]", "> 10 µM"),
    ("CC(C)OC(=O)Nc1ccc(-c2ncc(-c3ccc(CNC(=O)C4CCNCC4)cc3S(=O)(=O)NC(C)(C)C)s2)cc1", "< 10 µM"),
    ("COC(=O)Nc1ccc(-c2cnc(-c3ccc(NC(=S)NC(C)C)cc3)s2)c(S(=O)(=O)NC(C)(C)C)c1", "> 10 µM"),
    ("CC(C)OC(=O)Nc1ccc(-c2ncc(-c3ccc(N4CCOC4=O)cc3S(=O)(=O)NC(C)(C)C)s2)cc1", "< 5 µM"),
]

# value of EC50, Daudi Cell Culture, item CC(C)OC(=O)Nc1ccc(-c2ncc(-c3ccc(NC(=O)C(C)C)cc3S(=O)(=O)NC(C)(C)C)s2)cc1 = < 1 µM

----------
# Test system: Daudi Cell Culture
# Assay Details: Compound primary screening in Daudi cell culture
# Type: cell-based
# Assay Setup: Homo sapiens, 168 h; Daudi cells, 1250 cells per well, reads on Day 7
# Description: Compound Primary Screening 1. Materials and Supplies […] A 96 well u-bottom plate was prepared by writing the experiment number, plate number, date and initials in the top right corner of the plate lid. […] Cell cultures were counted to obtain the density of cells per ml, and the culture viability. […] Once the media volume was calculated, the appropriate volume of media was pipetted in 25 mL increments into the 250 mL bottle using a 25 mL serological pipette. […]
pEC50: −log10 of the molar value.
Below, each of the compounds is paired with its reported pEC50 value.

Field: example entries. Status: answers known.
# Compound, Test Readout, Measured Result
measured = [
    ("CC(C)NC(=S)Nc1ccc(-c2ncc(-c3ccc(NC(=O)NCc4cccnc4)cc3S(=O)(=O)NC(C)(C)C)s2)cc1 [Compound M3]", "pEC50", "> 5.00"),
    ("CC(C)OC(=O)Nc1ccc(-c2ncc(-c3ccc(NC(=O)OCc4nccs4)cc3S(=O)(=O)NC(C)(C)C)s2)cc1 [Compound B11]", "pEC50", "> 6.00"),
    ("CC(C)OC(=O)Nc1ccc(-c2ncc(-c3ccc(NC(=O)OCc4ccccn4)cc3S(=O)(=O)NC(C)(C)C)s2)cc1 [Compound B3]", "pEC50", "> 6.00"),
]

CC(=O)Nc1ccc(-c2cnc(-c3ccc(NC(=S)NC(C)C)cc3)s2)c(S(=O)(=O)NCCN)c1 [Compound D17] has a reported pEC50 of < 5.00

CC(C)OC(=O)Nc1ccc(-c2ncc(-c3ccc(-c4ccn[nH]4)cc3S(=O)(=O)NC(C)(C)C)s2)cc1 [Compound J2] has a reported pEC50 of > 5.30

CC(=O)Nc1ccc(-c2cnc(-c3ccc(N)cc3)s2)c(S(=O)(=O)NC(C)(C)C)c1 [Compound A4] has a reported pEC50 of > 5.00

CC(=O)Nc1ccc(-c2cnc(-c3ccc(NC(=S)NC(C)C)cc3)s2)c(S(=O)(=O)NC(C)(C)C)c1 [Compound D30] has a reported pEC50 of > 5.30

CC(C)OC(=O)Nc1ccc(-c2ncc(-c3ccc(CNC(=O)c4ccncc4)cc3S(=O)(=O)NC(C)(C)C)s2)cc1 [Compound O7] has a reported pEC50 of > 5.30

CC(C)NC(=S)Nc1ccc(-c2ncc(-c3ccc(NC(=O)NCc4cccc(O)c4)cc3S(=O)(=O)NC(C)(C)C)s2)cc1 [Compound N2] has a reported pEC50 of > 5.00

CC(=O)Nc1ccc(-c2cnc(-c3ccc(N4CCOC4=O)cc3)s2)c(S(=O)(=O)NC(C)(C)C)c1 [Compound J19] has a reported pEC50 of < 5.00

CC(C)OC(=O)Nc1ccc(-c2ncc(-c3ccc(C(N)=O)cc3S(=O)(=O)NC(C)(C)C)s2)cc1 [Compound I6] has a reported pEC50 of > 5.30

Source: patent US11291655B2
